# TEST_TARGET: S1P2 (Homo sapiens, UniProt O95136)
# Construct: Flag
# Sequence (O95136 whole entry, species assumed): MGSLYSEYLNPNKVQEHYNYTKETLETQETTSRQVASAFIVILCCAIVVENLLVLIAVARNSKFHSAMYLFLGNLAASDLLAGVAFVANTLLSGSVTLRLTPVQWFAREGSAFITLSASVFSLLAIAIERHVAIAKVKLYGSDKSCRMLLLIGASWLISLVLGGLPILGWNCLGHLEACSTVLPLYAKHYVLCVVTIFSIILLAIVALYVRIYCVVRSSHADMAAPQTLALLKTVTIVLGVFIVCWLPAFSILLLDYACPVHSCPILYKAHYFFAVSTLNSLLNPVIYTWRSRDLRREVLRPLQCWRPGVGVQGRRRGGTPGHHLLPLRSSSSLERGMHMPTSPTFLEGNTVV
# ASSAY_DETAILS: GLISA RhoA activation - antagonist assay
# CONDITION_SET: CHO-S1P2-FL cells, 1 hour compound incubation, then for 5 min
pIC50: −log10 of the molar value. Structures can show the parent of a compound that is named as a salt.
ENDPOINT_NAME: pIC50

Some compounds with known pIC50 results, for comparison:
>>> df
                                   compound  quantitative_readout
0  C=Cc1ccc(=O)n(C(C)C(=O)c2cnn(Cc3ccccn3)c2C)c1 (stereo not drawn) [Example 79]                  7.30
1  Cc1c(C(=O)Cn2cc(Br)c(F)cc2=O)cnn1Cc1ccccc1 [Example 72]                  7.04
2  C=Cc1ccc(=O)n(CC(=O)c2cnn(Cc3ccccc3)c2CC)c1 [Example 85]                  6.97
3  Cc1cc(C(=O)C(C)n2cc(Br)ccc2=O)c(C)n1Cc1cccc(Cl)c1 (stereo not drawn) [Compound 22]                  6.10
4  C=Cc1ccc(=O)n(CC(=O)c2cnn(Cc3ccccc3)c2C(F)(F)F)c1 [Example 82]                  7.13
5  C=C(c1ccc(=O)n(CC(=O)c2cnn(Cc3ccccc3)c2C)c1)C(F)(F)F [Example 84]                  7.37

I: Cc1c(C(=O)Cn2cc(Br)cnc2=O)cnn1Cc1ccccc1 [Example 56]
II: Cc1cc(C(=O)Cn2cc(I)ccc2=O)c(C)n1Cc1ccccc1 [Compound 2]
III: C#Cc1ccc(=O)n(Cc2nccc3c2cnn3Cc2ccccc2)c1 [Compound 131, hydrochloride]
Incoming: Parameters: sort_field (pIC50), sort_dir (desc). Sort the labels as requested; that list is your answer.
Outgoing: III, I, II

A: C#Cc1ccc(=O)n(CC(=O)c2nnn(Cc3ccccc3)c2C)c1 [Example 88]
B: Cc1cc(C(=O)C(C)n2cc(Br)ccc2=O)c(C)n1Cc1ccccc1 (stereo not drawn) [Compound 4]
Incoming: Please let me know which one, A or B , has a lower measured pIC50 value. Pick one; state its label.
Outgoing: A
(A: 7.14, B: 7.59)

1: Cc1nc(C(=O)Cn2cc(Br)ccc2=O)c(C)n1Cc1ccc(F)cc1 [Compound 30]
2: C#Cc1ccc(=O)n(C(C)C(=O)c2cnn(Cc3ccc(F)cc3)c2C)n1 (stereo not drawn) [Example 74]
Incoming: Please let me know which one, 1 or 2 , has a lower measured pIC50 value. Pick one; state its label.
Outgoing: 1

I: C=Cc1ccc(=O)n(CC(=O)c2cnn(Cc3ccccn3)c2CC)c1 [Example 80]
II: C#Cc1ccc(=O)n(C(C)C(=O)c2cnn(Cc3ccccc3)c2C)n1 (stereo not drawn) [Example 73]
III: C#Cc1ccc(=O)n(CC(=O)c2cc(C)n(Cc3ccc(F)cc3)n2)c1 [Compound 31]
Incoming: Parameters: sort_field (pIC50), sort_dir (desc). Sort the labels as requested; that list is your answer.
Outgoing: II, I, III
(II: 7.23, I: 7.01, III: 6.60)

###

# TEST_TARGET: S1PR2 (Homo sapiens, UniProt O95136)
# Sequence (O95136 whole entry, species assumed): as above
# ASSAY_DETAILS: FLIPR calcium activation - antagonist assay
# CONDITION_SET: CHO-S1PR2 FL cells, 1 hour compound incubation
pIC50: −log10 of the molar value.
ENDPOINT_NAME: pIC50

In [3]: df
Out[3]:
                                   compound                           test_target  quantitative_readout
0  C#Cc1cc(C)c(=O)n(CC(=O)c2cnn(Cc3ccccc3)c2C)c1 [Example 42]  S1PR2 (Homo sapiens, UniProt O95136)                  6.25
1  Cc1c(C(=O)Cn2cc(Br)ccc2=O)cnn1Cc1cccc(C(=O)O)c1 [Compound 32]  S1PR2 (Homo sapiens, UniProt O95136)                  5.06

P: Cc1cc(C(=O)Cn2cc(Br)ccc2=O)c(C)n1Cc1ccccc1 [Compound 1]
Q: Cc1c(C(=O)Cn2cc(Br)ccc2=O)cnn1Cc1cccnc1 [Compound 33]
R: C#Cc1ccc(=O)n(CC(=O)c2cnn(Cc3cccc(C(=O)O)c3)c2C)c1 [Example 36]
S: C#Cc1ccc(=O)n(CC(=O)c2cnn(Cc3cccnc3)c2C)c1 [Compound 35]
T: C#Cc1ccc(=O)n(CC(=O)c2cnn(Cc3ccccc3)c2C)c1 [Compound 29]
Incoming: Parameters: sort_field (pIC50), sort_dir (desc). Sort the labels as requested; that list is your answer.
Outgoing: T, P, S, Q, R
(T: 7.64, P: 7.24, S: 6.41, Q: 5.25, R: 5.01)
